# Protocol notes: SAD study in healthy volunteers: PK in plasma, whole blood, red blood cells
# Type: in vivo, human
# Condition details: human, plasma, po, 2200 mg, HV single oral 2200 mg (Cohort 8); geometric mean
# Procedure: To evaluate the safety and tolerability of single ascending doses of Compound I, 48 healthy volunteers (42 in the fasted state and 6 in the fed state) aged 18 to 55 years old were administered single ascending doses (50 mg to 2200 mg) of Compound I, while 16 healthy volunteers (14 in the fasted state and 2 in the fed state) aged 18 to 55 years old were administered placebo in a double blind, randomized, sequential manner. […]
Quantity: Cmax (ng/mL)
Give the quantity in ng/mL, number only.

Problem: Quick one: Cmax of O=Cc1c(O)cccc1OC[C@@H]1COCCN1C(=O)c1cccnc1CCO ?
Solution: 9300

* * *

# Protocol notes: SAD study in healthy volunteers: PK in plasma, whole blood, red blood cells
# Assay type: in vivo, human
# Condition details: human; HV single oral 2200 mg (Cohort 8); plasma; geometric mean
# Experimental: To evaluate the safety and tolerability of single ascending doses of Compound I, 48 healthy volunteers (42 in the fasted state and 6 in the fed state) aged 18 to 55 years old were administered single ascending doses (50 mg to 2200 mg) of Compound I, while 16 healthy volunteers (14 in the fasted state and 2 in the fed state) aged 18 to 55 years old were administered placebo in a double blind, randomized, sequential manner. […]
Quantity: AUC(0-inf)
A bare number is not enough; add the unit after it.

Problem: If you can, please state the reported AUC(0-inf) value of O=Cc1c(O)cccc1OC[C@@H]1COCCN1C(=O)c1cccnc1CCO [Compound I] .
Solution: 1430 µg·h/mL

* * *

# Protocol notes: SAD study in healthy volunteers: PK in plasma, whole blood, red blood cells
# Format: in vivo, human
# Condition details: human, whole blood, po, 2200 mg, HV single oral 2200 mg (Cohort 8); whole blood; geometric mean; read-out: AUClast
Quantity: AUC(0-t)
Just the number plus its unit, please.

Problem: // AUC(0-t) lookup, key: O=Cc1c(O)cccc1OC[C@@H]1COCCN1C(=O)c1cccnc1CCO
Solution: 264000 µg·h/mL

* * *

# Protocol notes: SAD study in healthy volunteers: PK in plasma, whole blood, red blood cells
# Format: in vivo, human
# Condition details: human, plasma, po, 800 mg, HV single oral 800 mg (Cohort 6); geometric mean
Quantity: Cmax
I'd appreciate it if you included the unit after the number.

Problem: Item O=Cc1c(O)cccc1OC[C@@H]1COCCN1C(=O)c1cccnc1CCO has what recorded Cmax?
Solution: 4250 ng/mL

* * *

# Protocol notes: SAD study in healthy volunteers: PK in plasma, whole blood, red blood cells
# Assay type: in vivo, human
# Condition details: human, whole blood, 800 mg, HV single 800 mg; mean
Quantity: Cmax (µg/mL)
Give just the number in µg/mL; leave the unit off.

Problem: For the compound shown here, O=Cc1c(O)cccc1OC[C@@H]1COCCN1C(=O)c1cccnc1CCO , give the reported Cmax.
Solution: 149

* * *

# Protocol notes: Single 100 mg dose PK in SCD subjects
# Type: in vivo, human
# Condition details: human, plasma, 100 mg, SCD subjects n=6, single 100 mg; geometric mean
Quantity: AUC(0-t) (µg·h/mL)
Your answer is read as µg·h/mL, so omit the unit and give the number.

Problem: Which AUC(0-t) value belongs to O=Cc1c(O)cccc1OC[C@@H]1COCCN1C(=O)c1cccnc1CCO ?
Solution: 67.2
